# Test system: Staphylococcus sp.
# Assay Details: in vitro antibacterial evaluation, MIC by broth dilution
# Format: cell-based
# Experimental Conditions: strain GC 1131; broth dilution, 18 hours at 35° C.
Measurement Name: MIC Staphylococcus aureus (GC 1131) (µg/mL)
Kindly provide the numeric value in µg/mL only, without the unit symbol.

Exercise: Tell me MIC Staphylococcus aureus (GC 1131) of Cc1ccc(Oc2cccc(C3OCC4OC(OC5C(CO)OC(Oc6ccc(CC7NC(=O)C(C(C)c8ccccc8)NC(=O)CNC(=O)C(CO)NC(=O)C(C(O)C8CNC(=N)N8C8OC(CO)C(O)C(O)C8O)NC(=O)C(C(O)C8CNC(=N)N8)NC7=O)cc6I)C(O)C5O)C(O)C(O)C4O3)c2)cc1 (stereo not shown) when tested on Staphylococcus sp..
Key: 16

Exercise: Tell me MIC Staphylococcus aureus (GC 1131) of CC(c1ccccc1)C1NC(=O)CNC(=O)C(CO)NC(=O)C(C(O)C2CNC(=N)N2C2OC(CO)C(O)C(O)C2O)NC(=O)C(C(O)C2CNC(=N)N2)NC(=O)C(Cc2ccc(OC3OC(CO)C(OC4OC5COC6(CC7CCC6(C)C7(C)C)OC5C(O)C4O)C(O)C3O)cc2)NC1=O (stereo not shown) [Example 214] when tested on Staphylococcus sp..
Key: 1
